Tested on: HOP-62 NSCLC
TEST PROTOCOL: NCI-60 one-dose screen, 48 h
MEASUREMENT SETUP: 10 µM unless noted
This is part of a sample that, as a whole, favours compounds with a hit. Of some 83,000 tested, about 20% had one in any assay. Active and inactive are the calls of the source. How the source made its calls: active means growth percent below 10; inactive means the rest.
Pick one and only one: active, inactive

- MOLECULE: "CC(C)N(Cc1ccccc1)c1c(S)ssc1=S"
  CLASS LABEL: "active"
- MOLECULE: "N/C(=N\\C(N)=N\\c1nc2ccccc2s1)c1ccnc(Cl)c1"
  CLASS LABEL: "inactive"
- MOLECULE: "CCCCCCCCCCCCC1CCCC(C)C1 (stereo unspecified)"
  CLASS LABEL: "inactive"
- MOLECULE: "CCN1CCN(c2nc(NNC(=O)Cc3ccccc3)nc(N3CCN(C(c4ccccc4)c4ccccc4)CC3)n2)CC1"
  CLASS LABEL: "inactive"
- MOLECULE: "O=C(C(=O)c1cc(Br)ccc1O)c1cc(Br)ccc1O"
  CLASS LABEL: "inactive"

From here, focus on the item given below.
// param item: CC(=O)N1N=C(c2ccc(Nc3nc(NCCO)nc(NCCO)n3)cc2)CC1c1ccc(Cl)cc1 (stereo unspecified) ; yields the recorded call
inactive
